Test system: U2OS VEGF mRNA induction, RT-PCR
PROTOCOL TEXT: activators raising VEGF transcript levels – cell-based, U2OS, RT-PCR, dry powder, set 2, orthogonal assay for HIF pathway activator project, dose response (AID 493238)
Active and inactive are the calls of the source.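 The calls were made as follows: active = VEGF mRNA rise whose fitted curve reaches 40% activation within the highest concentration tested on that sample; inactive = the rest, including effects opposite to expected.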
Exercise: for every item that follows, state its recorded AC40.

// AC40 lookup, compound = "C=CCNc1nc(-c2ccccn2)nnc1-c1ccccc1" , result: 4.47 µM

AC40 reported for this compound Oc1ccc(CN2CCC3CCCCC3C2)c2cccnc12 (stereo not drawn) : 3.2 µM

The reported value for "OCC1CCN(c2nc(-c3ccccn3)nnc2-c2ccccc2)CC1" in terms of AC40 is 10.5 µM

Documented AC40 of "CN1CCN(c2nc(-c3ccccn3)nnc2-c2ccccc2)CC1" : 5.95 µM

Lab note: measured AC40 of "OCCCNc1nc(-c2ccccn2)nnc1-c1ccccc1" was 8.34 µM

Briefly, AC40 measured for "O=C(NCCCCO)c1cc(-c2ccccc2)on1" : 5.01 µM

AC40 for O=C(NC1CCc2ccccc2C1)c1cc(-c2ccccc2)on1 (stereo not drawn) is > 38 µM (inactive)

Field AC40 (entry "c1ccc(-c2cnc(Nc3nc(-c4ccccn4)nnc3-c3ccccc3)s2)cc1" ) reads 0.4 µM
